# measured.on: human muscarine receptor M3 (Homo sapiens, UniProt P20309)
# Sequence (P20309 whole entry): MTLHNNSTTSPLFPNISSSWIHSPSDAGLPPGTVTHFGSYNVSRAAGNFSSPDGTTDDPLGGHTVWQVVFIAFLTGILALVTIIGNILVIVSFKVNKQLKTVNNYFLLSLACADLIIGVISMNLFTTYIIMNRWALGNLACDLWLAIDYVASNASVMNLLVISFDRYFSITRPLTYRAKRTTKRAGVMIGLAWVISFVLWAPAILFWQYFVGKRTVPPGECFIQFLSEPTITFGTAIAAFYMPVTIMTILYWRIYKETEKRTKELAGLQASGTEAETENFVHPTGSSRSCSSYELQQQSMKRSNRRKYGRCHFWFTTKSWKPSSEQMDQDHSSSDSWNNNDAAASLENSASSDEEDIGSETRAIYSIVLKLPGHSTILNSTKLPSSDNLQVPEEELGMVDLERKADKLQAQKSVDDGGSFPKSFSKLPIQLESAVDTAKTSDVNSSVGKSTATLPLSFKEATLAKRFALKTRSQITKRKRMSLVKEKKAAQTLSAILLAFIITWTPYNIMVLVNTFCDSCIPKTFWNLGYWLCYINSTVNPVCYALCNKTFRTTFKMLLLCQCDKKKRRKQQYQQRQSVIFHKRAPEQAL
# assay.details: Inhibitory activity against human muscarine receptor M3 (aequorin luminescence in CHO cells, acetylcholine challenge)
# measurement.setup: CHO cells expressing hM3 and apo-Aequorin; acetylcholine chloride 112.92 nM
pIC50: −log10 of the molar value.
property: pIC50

A. COc1cc(NC(=O)OCC2CCN(C(=O)CCN3CCC(OC(=O)Nc4ccccc4-c4ccccc4)CC3)CC2)c(Cl)cc1CNC[C@H](O)c1ccc(O)c2[nH]c(=O)ccc12 [Compound 3]
B. O=C(Nc1ccccc1-c1ccccc1)OC1CCN(CCC(=O)N2CCC(C(=O)Nc3ccc(CNC[C@H](O)c4ccc(O)c5[nH]c(=O)ccc45)cc3)CC2)CC1 [Compound 1, ditrifluoroacetic acid]
C. O=C(Nc1ccc(CNC[C@H](O)c2ccc(O)c3[nH]c(=O)ccc23)cc1F)OCC1CCN(C(=O)CCN2CCC(OC(=O)Nc3ccccc3-c3ccccc3)CC2)CC1 [Compound 7, ditrifluoroacetic acid]
Kindly provide a descending ordering of the above compounds based on their pIC50. // rank by listing labels in the order requested
C, A, B

----------
# assay.details: Pharmacokinetic evaluation in SD rats
# Format: in vivo
# measurement.setup: Sprague-Dawley (SD), rat, inhaled or intranasal; male SD rats, it (intratracheal), 1 mg/kg, plasma
property: half-life (min)
Write the answer as a number in min, unit excluded.

Lookup result for O=C(Nc1ccc(CNC[C@H](O)c2ccc(O)c3[nH]c(=O)ccc23)cc1)OCC1CCN(C(=O)CCN2CCC(OC(=O)Nc3ccccc3-c3ccccc3)CC2)CC1 [Compound 2, ditrifluoroacetic acid] ; measured half-life: 45

----------
# measured.on: UniProt P07550
# Sequence (P07550 whole entry): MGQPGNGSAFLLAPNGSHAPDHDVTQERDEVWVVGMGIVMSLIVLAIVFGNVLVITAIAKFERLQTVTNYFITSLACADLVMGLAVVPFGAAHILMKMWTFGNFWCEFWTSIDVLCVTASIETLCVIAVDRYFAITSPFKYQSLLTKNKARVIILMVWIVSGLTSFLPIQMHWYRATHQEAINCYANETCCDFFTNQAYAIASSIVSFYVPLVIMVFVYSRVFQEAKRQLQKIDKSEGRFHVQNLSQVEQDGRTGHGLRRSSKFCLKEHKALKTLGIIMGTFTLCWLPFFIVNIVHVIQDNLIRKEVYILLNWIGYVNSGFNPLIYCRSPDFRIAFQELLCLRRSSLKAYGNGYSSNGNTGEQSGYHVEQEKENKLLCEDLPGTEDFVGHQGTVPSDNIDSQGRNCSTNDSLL
# assay.details: Agonistic activity on human β2-adrenergic receptor (LANCE Ultra cAMP Assay in CHO cells)
# measurement.setup: CHO cells expressing hβ2; cAMP TR-FRET
property: EC50 (nM)

Past entries and their recorded results:
smiles.repr: O=C(Nc1ccc(CNC[C@H](O)c2ccc(O)c3[nH]c(=O)ccc23)cc1)OCC1CCN(C(=O)CCN2CCC(OC(=O)Nc3ccccc3-c3ccccc3)CC2)CC1
measure.unit: nM
test.result: 1.85
--
smiles.repr: O=C(Nc1ccc(CNC[C@H](O)c2ccc(O)c3[nH]c(=O)ccc23)c(F)c1)OCC1CCN(C(=O)CCN2CCC(OC(=O)Nc3ccccc3-c3ccccc3)CC2)CC1
measure.unit: nM
test.result: 3.34
--
smiles.repr: O=C(Nc1ccc(CNC[C@H](O)c2ccc(O)c3[nH]c(=O)ccc23)cc1F)OCC1CCN(C(=O)CCN2CCC(OC(=O)Nc3ccccc3-c3ccccc3)CC2)CC1
measure.unit: nM
test.result: 6.01
--
smiles.repr: CN(CCNC[C@H](O)c1ccc(O)c2[nH]c(=O)ccc12)C(=O)C1CCN(C(=O)CCN2CCC(OC(=O)Nc3ccccc3-c3ccccc3)CC2)CC1
measure.unit: nM
test.result: 17.4

1. O=C(CC1CCN(C(=O)CCN2CCC(OC(=O)Nc3ccccc3-c3ccccc3)CC2)CC1)Nc1ccc(CNC[C@H](O)c2ccc(O)c3[nH]c(=O)ccc23)cc1
2. COc1cc(NC(=O)OCC2CCN(C(=O)CCN3CCC(OC(=O)Nc4ccccc4-c4ccccc4)CC3)CC2)c(Cl)cc1CNC[C@H](O)c1ccc(O)c2[nH]c(=O)ccc12
For the two items 1 and 2 , which reports the higher EC50 value? Field: selected label. Fill in the label of the entry you choose.
2
(2: 10.2 nM, 1: 3.96 nM)

----------
# assay.details: Pharmacokinetic evaluation in SD rats
# Assay type: in vivo
# measurement.setup: Sprague-Dawley (SD), rat, inhaled or intranasal; male SD rats, it (intratracheal), 1 mg/kg, plasma
property: Tmax (min)
Write the answer as a number in min, unit excluded.

Lookup result for O=C(Nc1ccc(CNC[C@H](O)c2ccc(O)c3[nH]c(=O)ccc23)cc1)OCC1CCN(C(=O)CCN2CCC(OC(=O)Nc3ccccc3-c3ccccc3)CC2)CC1 [Compound 2, ditrifluoroacetic acid] ; measured Tmax: 34.8
